Recorded IC50 for the following compounds
# Test system: cultured human mast cells
# Run Description: Degranulation inhibition test using cultured human mast cells (IgE cross-linking, β-Hexosaminidase release)
# Type: cell-based
# Conditions: Mast cell; cultured human mast cells, anti-hIgE stimulation, β-Hexosaminidase index, average; read-out: human degranulation ave. IC50
Measured Attribute: IC50

[[record]]
compound = "Cc1ccnc(Nc2cccc(-c3cnc(Cc4ccc(C(=O)N5CCC(O)CC5)cc4)s3)n2)c1"
result = "> 1000 nM"

[[record]]
compound = "COC(=O)N[C@@H](C)c1ncc(-c2cccc(Nc3cc(C)ccn3)n2)s1"
result = "100 to 1000 nM"

[[record]]
compound = "Cc1ccnc(Nc2cccc(-c3cnc(C4CCCC(C(=O)N5C[C@@H](O)[C@@H](O)C5)C4)s3)n2)c1 (some centres unmarked)"
result = "> 1000 nM"

[[record]]
compound = "COC(=O)CN1CCC(c2ncc(-c3cccc(Nc4cc(C)ccn4)n3)s2)CC1"
result = "100 to 1000 nM"

[[record]]
compound = "CC(=O)O[C@@H](C)c1ncc(-c2cccc(Nc3cc(C)ccn3)n2)s1"
result = "100 to 1000 nM"


---

# Test system: cultured human mast cells
# Run Description: Degranulation inhibition test using cultured human mast cells (IgE cross-linking, β-Hexosaminidase release)
# Assay type: cell-based
# Conditions: Mast cell; cultured human mast cells, anti-hIgE stimulation, β-Hexosaminidase index, average; read-out: human degranulation ave. IC50
Measured Attribute: IC50

[[record]]
compound = "Cc1ccnc(Nc2cccc(-c3cnc([C@@H]4CCC(=O)N4)s3)n2)c1"
result = "100 to 1000 nM"

[[record]]
compound = "Cc1ccnc(Nc2cccc(-c3cnc(CCC4CCN(S(C)(=O)=O)CC4)s3)n2)c1"
result = "100 to 1000 nM"

[[record]]
compound = "Cc1ccnc(Nc2cccc(-c3cnc(CC4CCC(O)CC4)s3)n2)c1 (stereo not shown)"
result = "100 to 1000 nM"

[[record]]
compound = "Cc1ccnc(Nc2cccc(-c3cnc([C@H](CCCCNC(=O)OC(C)(C)C)NC(=O)OCc4ccccc4)s3)n2)c1"
result = "> 1000 nM"

